Provenance of the data: ChEMBL document CHEMBL1130961

Catalogue of compounds with associated IC50
- target-system: Tyrosine-protein kinase Lck (Homo sapiens)
- Sequence (P06239 whole entry): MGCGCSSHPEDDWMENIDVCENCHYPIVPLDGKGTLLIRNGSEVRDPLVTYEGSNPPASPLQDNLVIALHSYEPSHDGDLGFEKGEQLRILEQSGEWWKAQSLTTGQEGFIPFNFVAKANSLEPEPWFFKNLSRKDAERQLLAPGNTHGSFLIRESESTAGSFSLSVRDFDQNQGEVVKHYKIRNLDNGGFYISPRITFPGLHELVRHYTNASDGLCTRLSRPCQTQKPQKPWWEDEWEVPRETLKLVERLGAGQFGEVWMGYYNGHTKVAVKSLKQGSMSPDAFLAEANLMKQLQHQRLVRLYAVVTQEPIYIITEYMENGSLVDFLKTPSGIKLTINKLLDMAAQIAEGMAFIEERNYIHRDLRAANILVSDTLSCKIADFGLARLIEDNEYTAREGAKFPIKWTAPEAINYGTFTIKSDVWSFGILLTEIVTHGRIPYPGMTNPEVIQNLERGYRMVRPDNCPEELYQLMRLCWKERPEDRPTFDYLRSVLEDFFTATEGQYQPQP
reported-property: IC50 (nM)

{"smi": "Nc1ccc2c(c1)C(=O)/C(=C/c1cc(Cl)c(O)c(Cl)c1)C2=O", "comparative-sign": "=", "observed": 102}
{"smi": "O=C1/C(=C/c2ccc(O)c(O)c2)C(=O)c2c1cccc2[N+](=O)[O-]", "comparative-sign": "=", "observed": 5000}
{"smi": "COc1cc(C=C2C(=O)c3cc(Cl)c(Cl)cc3C2=O)ccc1O", "comparative-sign": "=", "observed": 5000}
{"smi": "Nc1ccc2c(c1)C/C(=C\\c1cc(Br)c(O)c(Br)c1)C2=O", "comparative-sign": "=", "observed": 5000}
{"smi": "COc1cc(C=C2C(=O)c3cc(Cl)c(Cl)cc3C2=O)cc(Br)c1O", "comparative-sign": "=", "observed": 1700}
{"smi": "O=C1/C(=C/c2ccc(O)c(O)c2)C(=O)c2cc([N+](=O)[O-])ccc21", "comparative-sign": ">", "observed": 5000}
{"smi": "O=C1/C(=C/c2cc(Cl)c(O)c(Cl)c2)C(=O)c2c1cccc2[N+](=O)[O-]", "comparative-sign": "=", "observed": 1400}
{"smi": "Nc1ccc2c(c1)C(=O)/C(=C/c1ccc(O)c(O)c1)C2=O", "comparative-sign": "=", "observed": 600}
{"smi": "COc1ccc2c(c1)C(=O)/C(=C/c1cc(Br)c(O)c(OC)c1)C2=O", "comparative-sign": "=", "observed": 880}
